All values here come from PubChem BioAssay (NCI).

I'd be grateful if you could share measured TGI for these entries.
# Test system: ACHN renal
# Protocol summary: NCI tumour cell line growth inhibition, 48 h
Answers are plain numbers, in µM.

Completed entries (count: 4):
O=C(N/N=C/c1cc(Cl)cc(Cl)c1[O-])c1ccccc1O.O=C(N/N=C/c1cc(Cl)cc(Cl)c1[O-])c1ccccc1O.[Fe+2] ... 27.7
COc1cc2c(c(OC)c1)C(=O)C(=O)C(CC1(C)OCCCO1)=C2 ... 17.9
CC(c1ccccc1)n1c2ccccc2c2c(N)ncnc21 (stereo not given) ... 31.9
[O-][N+]1=C(c2ccccc2)/C(=C2/C(c3ccccc3)=[N+]([O-])c3ccccc32)Cc2ccccc21 ... 50.6

Shift focus to the following entry.
Which TGI value belongs to CCOC1Oc2ccccc2C(=O)/C1=C\Nc1ccc(C(=O)O)c(O)c1 (stereo not given) ?
44.3

====

# Tested on: 786-0 renal
# Protocol summary: NCI tumour cell line growth inhibition, 48 h; in the data active = GI50 below about 0.43 µM; inactive = the rest
Please reply with one of these outcomes: active, inactive

Outcome? O=C(Nc1cccc(-n2ccc3c(NC(=O)c4ccccc4)nccc32)c1)c1ccc(Cl)c(Cl)c1
active

And what about the compound C=C1C(=O)O[C@H]2[C@H]1CC/C(CNC(=O)C(C)c1ccc(CC(C)C)cc1)=C\CC[C@@]1(C)O[C@@H]21 (some centres undefined) ?
inactive

And what about the compound COC(=O)c1cc2c([nH]c3ccccc32)c(-c2nc3ccccc3cc2CO)n1 ?
inactive

And what about the compound O=C(O)CC(S)C(=O)O.[Li+].[Sb] (centres undefined) ?
inactive

And what about the compound N#Cc1ccc(C(=O)c2cnn(-c3ccc(F)cc3)c2N)cc1 ?
inactive

====

# System: A549 NSCLC
# Protocol summary: NCI tumour cell line growth inhibition, 48 h
Endpoint name: TGI

Would you be so kind as to report TGI for each listed record?
1. C=C1C(=O)O[C@H]2C1C[C@H](O)/C(C)=C/CC[C@@]1(C)O[C@H]21 (some centres not stated)
2. O=C(N/N=C/c1cc(Cl)cc(Cl)c1[O-])c1ccccc1O.O=C(N/N=C/c1cc(Cl)cc(Cl)c1[O-])c1ccccc1O.[Fe+2]
3. CC(C)(CN1CCCCC1)C(=O)CC(SCCS(=O)(=O)O)c1ccccc1 (configuration not stated)
4. N#CCCN(c1ccc(C=Nc2ccc(C(=O)O)cc2)cc1)S(=O)(=O)c1ccccc1
5. CCN(CC)CCCNC(=O)c1ccccc1Nc1c(Cl)cccc1Cl

1: > 100 µM; 2: 35.2 µM; 3: > 100 µM; 4: > 100 µM; 5: 31.5 µM

====

# System: MOLT-4 leukemia
# Protocol summary: NCI tumour cell line growth inhibition, 48 h
I'd be grateful if you could share measured TGI for these entries.

O=C(N/N=C/c1cc(Cl)cc(Cl)c1[OH2+])c1ccncc1.O=S(=O)([O-])[O-].[Fe+2] ... 40 µM
O=c1[nH]nc(-c2ccccc2)n1-n1cccc1 ... > 100 µM
Cc1cnc2c(c1)C(=O)N(c1ccc(Br)cc1)S2(=O)=O ... > 100 µM
CCCn1cc(/C=N\N=C2\C(=O)Nc3ccc(C)cc32)c2ccccc21 ... 4.54 µM
CCCCCC1CC=CC(NC(=O)OCc2ccccc2)C1/C=C/CCCC1OCCO1 (centres undefined) ... > 100 µM
N#Cc1ccc(C(=O)c2cnn(-c3ccc(F)cc3)c2N)cc1 ... > 25 µM
C[C@@]12C[C@@H](c3ccccc3O1)N1CCCSC1=N2 ... > 100 µM
COc1cc2c(cc1OC)-c1cc3cc(OC)c(OC)cc3c(C)[n+]1CC2 (tested in a mixture with another compound) ... 48.1 µM
Fc1ccc(-c2c(-c3ccncc3)[nH]c3cccnc23)cc1 ... > 25 µM
CSC(=NC(=O)c1ccccc1)SCCSC(=NC(=O)c1ccccc1)SC ... > 100 µM

Would you be so kind as to report TGI for each listed record?
1. Cn1c2ccccc2c2c(=O)n(CCCC(=O)NCCc3cnc[nH]3)c3c(-c4ccccc4)nnn3c21
2. CC1=C(C(=O)Nc2ccccc2C)C(c2ccccc2O)C(C(=O)Nc2ccccc2C)=C(C)N1
3. O=[N+]([O-])c1cc(C(F)(F)F)cc2c1SC1=Nc3ccccc3CN12
4. COc1cccc(C2c3cc4c(cc3OC(NNC(N)=O)C2C)OCO4)c1OC (centres undefined)

["21.5 µM", "> 100 µM", "> 100 µM", "66.8 µM"]

====

# Test system: NCI-H226 lung
# Protocol summary: NCI tumour cell line growth inhibition, 48 h; in the data active = GI50 below about 0.43 µM; inactive = the rest
Please reply with one of these outcomes: TRUE for active, FALSE for inactive

Worked examples, 5 compounds total:
CN1CCN(C(=O)[C@@]2(C)CC[C@]3(C)CC[C@]4(C)C(=CC[C@@H]5[C@@]6(C)CC[C@H](OC(=O)c7cccnc7)C(C)(C)[C@@H]6CC[C@]54C)[C@@H]3C2)CC1 ... FALSE
Cn1cc(-c2csc(-c3cn(CCCN4CCCCC4)c4ccc(Br)cc34)n2)c2cccnc21 ... FALSE
O=C(CS(=O)c1nc2ccccc2nc1-c1ccccc1)Nc1ccc(Cl)cc1 (centres undefined) ... FALSE
CCCCNP1(NCCCC)=NP(NCCCC)(NCCCC)=NP(NCCCC)(NCCCC)=NP(NCCCC)(NCCCC)=N1 ... FALSE
O=C1NC(c2cccc3ccccc23)Nc2ccccc21 (centres undefined) ... TRUE

Outcome? Cc1c(C(=O)/C=C/c2ccc(Cl)cc2)nnn1-c1ccnc2c(C(F)(F)F)cccc12
FALSE

And what about the compound Fc1ccc(-c2c(-c3ccncc3)[nH]c3cccnc23)cc1 ?
FALSE

And what about the compound COc1cc(C(=O)c2cnc(-c3ccc4cc[nH]c4c3)[nH]2)cc(OC)c1OC ?
TRUE

And what about the compound Cc1ccc2c(c1)C(=O)/C(=C/c1cccc(OCC(=O)c3ccc(Cl)cc3)c1)CS2 ?
FALSE

====

I'd be grateful if you could share measured GI50 for these entries.
# Test system: UACC-257 melanoma
# Protocol summary: NCI tumour cell line growth inhibition, 48 h

Cc1c(C(=O)/C=C/c2ccc(Cl)cc2)nnn1-c1ccnc2c(C(F)(F)F)cccc12 ... 30.2 µM
COc1ccc2c(c1)C(=O)/C(=C/c1cccc(OCC(=O)c3ccc([N+](=O)[O-])cc3)c1)CO2 ... 3.73 µM
Cc1nccc2c3ccc(OCc4cn(-c5ccc(Br)cc5)nn4)cc3n(CCCc3ccccc3)c12 ... 2.06 µM
COc1ccc(C(=O)/C=C/c2c(C(F)(F)F)nc3ccccn23)cc1OC ... 2.43 µM
CN(C)c1ccc(/C=N/n2c(CCCCc3n[nH]c(=S)n3/N=C/c3ccc(N(C)C)cc3)n[nH]c2=S)cc1 ... > 100 µM

Would you be so kind as to report GI50 for each listed record?
1. O=c1oc2c(O)c(O)cc3c(=O)oc4c(O)c(O)cc1c4c23
2. CCOC1Oc2ccccc2C(=O)/C1=C\Nc1ccc(C(=O)O)c(O)c1 (stereo not given)
3. CCCCNP1(NCCCC)=NP(NCCCC)(NCCCC)=NP(NCCCC)(NCCCC)=NP(NCCCC)(NCCCC)=N1
4. CC[C@@]1(O)C(=O)OCc2c1cc1n(c2=O)Cc2cc3cccc(N)c3nc2-1
5. CN(C)c1ccc2cc3c(cc2c1)Oc1ccccc1N3.[Cl][Zn][Cl]

> 100 µM
19.4 µM
1.23 µM
> 100 µM
3.16 µM

====

# System: SNB-19 CNS
# Protocol summary: NCI tumour cell line growth inhibition, 48 h; in the data active means GI50 below about 0.43 µM; inactive means the rest
Please reply with one of these outcomes: 1 for active, -1 for inactive

Worked examples, 5 molecules total:
CC1OC(OC2C(O)C(OCCc3ccc(O)c(O)c3)OC(CO)C2OC(=O)/C=C/c2ccc(O)c(O)c2)C(O)C(O)C1O (stereo unspecified) ... -1
COc1ccc(-c2nsc3c2NC(=O)CC3c2cccc(F)c2)cc1 (stereo unspecified) ... -1
CC[C@@]1(O)C(=O)OCc2c1cc1n(c2=O)Cc2cc3cccc(N)c3nc2-1 ... -1
CCCCCCCCCCCCSC1=CC(=O)C=CC1=O ... -1
O=C(Nc1cccc(-n2ccc3c(NC(=O)c4ccccc4)nccc32)c1)c1ccc(Cl)c(Cl)c1 ... 1

Read the next record carefully.
Outcome? Cl.[O-]c1cccc2cccnc12.[O-]c1cccc2cccnc12.[O-]c1cccc2cccnc12.[O-]c1cccc2cccnc12.[Ti+4]
-1

====

# Tested on: HCC-2998 colon
# Protocol summary: NCI tumour cell line growth inhibition, 48 h; in the data active means GI50 below about 0.43 µM; inactive means the rest
Please reply with one of these outcomes: active, inactive

Worked examples, 5 compounds total:
COc1cc(C(=O)c2cnc(-c3ccc4cc[nH]c4c3)[nH]2)cc(OC)c1OC ... active
CCN(CC)CCOc1ccc(NC(=O)C(C(C)C)N2C(=O)/C(=C/c3ccc(Br)cc3)SC2=S)cc1 (stereo not drawn) ... inactive
Fc1ccc(-c2c(-c3ccncc3)[nH]c3cccnc23)cc1 ... inactive
COc1cc2c(cc1OC)-c1c(c3ccc([N+](=O)[O-])cc3c(=O)n1CCCN=[N+]=[N-])C2=O ... inactive
CN(CCCCCCCCNc1ccnc2ccccc12)Cc1ccc(-c2ccc(-c3ccc(C#N)cc3)s2)cc1 ... active

Outcome? CC[C@H](C)C(=O)O[C@H]1CCC=C2C=C[C@H](C)[C@H](CC[C@@H]3C[C@@H](O)CC(=O)O3)[C@H]21
inactive

And what about the compound O=c1oc2c(O)c(O)cc3c(=O)oc4c(O)c(O)cc1c4c23 ?
inactive

And what about the compound NCCNc1ccc(NCCN)c2c1C(=O)c1c(O)ccc(O)c1C2=O ?
active
